Molecular target: mutant HIV reverse transcriptases (Human immunodeficiency virus type 1, UniProt P12497, Y768C, cells depend on it)
Assay type: cell-based
In this section, each of the compounds is paired with its reported EC50.

CCCCNC(=O)c1ccc(NC(=O)CSc2nnc(Br)n2-c2ccc(CC)c3ccccc23)c(Cl)c1	< 50 nM

Form field EC50, entry "CCc1ccc(-n2c(Br)nnc2SCC(=O)Nc2ccc(C(=O)NCCN3CCCC3)cc2Cl)c2ccccc12" : < 50 nM

Form field EC50, entry "O=C(CSc1nnc(Br)n1-c1ccc(C2CC2)cc1C(F)(F)F)Nc1ccc(C(=O)O)cc1Cl" : < 50 nM

Form field EC50, entry Cc1cc(C)c2ccccc2c1-n1c(SCC(=O)Nc2ccc(S(N)(=O)=O)cc2Cl)nnc1C(F)(F)F [compound 83] : < 50 nM

Form field EC50, entry "CCc1ccc(-n2c(Br)nnc2SCC(=O)Nc2ccc(C(=O)NCC(=O)O)cc2Cl)c2ccccc12" : < 50 nM

Form field EC50, entry "Cc1cc(C2CC2)c2ccccc2c1-n1c(Br)nnc1SCC(=O)Nc1ccc(S(=O)(=O)O)cc1Cl" : 50 to 100 nM

Form field EC50, entry "CCc1ccc(-n2c(CF)nnc2SCC(=O)Nc2ccc(S(N)(=O)=O)cc2Cl)c2c1CCCC2" : < 50 nM

Form field EC50, entry "CCc1ccc(-n2c(Br)nnc2SCC(=O)Nc2ccc(C(=O)O)cc2C)c2ccccc12" : < 50 nM

Form field EC50, entry CCc1ccc(-n2c(Br)nnc2SCC(=O)Nc2ccc(C(=O)N3CCCCC3CO)cc2Cl)c2ccccc12 (stereo not drawn) : < 50 nM

Form field EC50, entry "Cc1cc(C(=O)O)ccc1NC(=O)CSc1nnc(C(F)F)n1-c1ccc(C)c2c1CCCC2" : > 100 nM

Form field EC50, entry "CCCc1ccc(-n2c(Br)nnc2SCC(=O)Nc2ccc(S(N)(=O)=O)cc2C)c2ccccc12" : < 50 nM

Form field EC50, entry "Cc1cc(S(N)(=O)=O)ccc1NC(=O)CSc1nnc(CF)n1-c1c(C)cc(C)c2ccccc12" : < 50 nM

Form field EC50, entry "CNS(=O)(=O)c1ccc(NC(=O)CSc2nnc(C(F)F)n2-c2ccc(C)c3ccccc23)c(Cl)c1" : < 50 nM

Form field EC50, entry "O=C(O)CNC(=O)c1ccc(NC(=O)CSc2nnc(Br)n2-c2ccc(C3CC3)c3ccccc23)c(Cl)c1" : > 100 nM

Form field EC50, entry "CCc1ccc(-n2c(Br)nnc2SCC(=O)Nc2ccc(C(=O)NCCOC)cc2Cl)c2ccccc12" : < 50 nM
